Could you please report measured cell viability for the items listed next?
System: SEM cells
Assay: cell viability relative to DMSO control; higher = less cytotoxic
Details: RPMI 5 mM glucose + 10% FBS; 48 h; 1.71 µM
Kindly report the value followed by its unit.

Data request: Tell me cell viability reported for COc1cc([C@@H]2c3cc4c(cc3[C@H](O)[C@H]3COC(=O)[C@@H]23)OCO4)cc(OC)c1OC
Data returned: 12.1%

Data request: Give the reported cell viability for this compound. CC(C)=CCC/C(C)=C/CC/C(C)=C/CC/C(C)=C/CC/C(C)=C/CC/C(C)=C/CC/C(C)=C/CC/C(C)=C/CC/C(C)=C/CO
Data returned: 60.7%

Data request: Give a short answer stating reported cell viability for Cc1ccc(C(=O)Nc2cccc(C(F)(F)F)c2)cc1-c1ccc2nc(NCCN3CCOCC3)ncc2c1 .
Data returned: 103%

Data request: Provide only the value of recorded cell viability for N#C/C(=C\c1ccc(O)c(O)c1)C(=O)NCc1ccccc1
Data returned: 112%
